- PROTOCOL_SUMMARY: Stability in buffer at various pH values
- Format: physicochemical
- PARTICULARS: pH 7.4, 37° C., 24 h
Structures can show the parent of a compound that is named as a salt.
MEASURED_ENDPOINT: % test substance after 24 h [F(t = 24 h) × 100/F(t = 0 h)] (%)

Completed entries (count: 5):
COMPOUND	RESULT_NUMBER
C[C@H](NC(=O)[C@@H]1CCCN1)C(=O)OC[C@H](COc1ccc(-c2c(C#N)c(N)nc(SCc3coc(-c4ccc(Cl)cc4)n3)c2C#N)cc1)OC(=O)[C@H](C)NC(=O)[C@@H]1CCCN1 [Example 8, (trifluoroacetic acid) salt]	34
C[C@H](NC(=O)CN)C(=O)OC[C@H](COc1ccc(-c2c(C#N)c(N)nc(SCc3coc(-c4ccc(Cl)cc4)n3)c2C#N)cc1)OC(=O)[C@H](C)NC(=O)CN	0
C[C@H](NC(=O)[C@@H](N)CCCCN)C(=O)OC[C@@H](COc1ccc(-c2c(C#N)c(N)nc(SCc3coc(-c4ccc(Cl)cc4)n3)c2C#N)cc1)OC(=O)[C@H](C)NC(=O)[C@@H](N)CCCCN	0
CC[C@H](C)[C@H](N)C(=O)N[C@@H](C)C(=O)OC[C@H](COc1ccc(-c2c(C#N)c(N)nc(SCc3coc(-c4ccc(Cl)cc4)n3)c2C#N)cc1)OC(=O)[C@H](C)NC(=O)[C@@H](N)[C@@H](C)CC	68
CC(C)[C@H](NC(=O)[C@H](C)N)C(=O)OC[C@H](COc1ccc(-c2c(C#N)c(N)nc(SCc3coc(-c4ccc(Cl)cc4)n3)c2C#N)cc1)OC(=O)[C@@H](NC(=O)[C@H](C)N)C(C)C	88

1 = C[C@H](NC(=O)CCN)C(=O)OC[C@H](COc1ccc(-c2c(C#N)c(N)nc(SCc3coc(-c4ccc(Cl)cc4)n3)c2C#N)cc1)OC(=O)[C@H](C)NC(=O)CCN
2 = C[C@H](NC(=O)[C@@H](N)CCCCN)C(=O)OC[C@H](COc1ccc(-c2c(C#N)c(N)nc(SCc3coc(-c4ccc(Cl)cc4)n3)c2C#N)cc1)OC(=O)[C@H](C)NC(=O)[C@@H](N)CCCCN
Select the item with the higher value of % test substance after 24 h [F(t = 24 h) × 100/F(t = 0 h)] from the options 1 and 2 listed. To answer, give the label that identifies your chosen option.
1
(1: 81%, 2: 0%)

###

- PROTOCOL_SUMMARY: Determination of the solubility in 5% strength aqueous dextrose solution
- Format: physicochemical
- PARTICULARS: saline or isotonic, thermodynamic from solid, room temperature
Where a name gives a salt, the structure may show the parent alone.
MEASURED_ENDPOINT: solubility thermodynamic at 24 h (µg/mL)

MOLECULE	RESULT_NUMBER
C[C@H](N)C(=O)N[C@@H](C)C(=O)OC[C@H](COc1ccc(-c2c(C#N)c(N)nc(SCc3coc(-c4ccc(Cl)cc4)n3)c2C#N)cc1)OC(=O)[C@H](C)NC(=O)[C@H](C)N	620
C[C@@H](O)[C@H](N)C(=O)NCCC(=O)OC[C@H](COc1ccc(-c2c(C#N)c(N)nc(SCc3coc(-c4ccc(Cl)cc4)n3)c2C#N)cc1)OC(=O)CCNC(=O)[C@@H](N)[C@@H](C)O [Example 39, (trifluoroacetic acid) salt]	490
C[C@H](NC(=O)[C@@H](N)CCCN)C(=O)OC[C@H](COc1ccc(-c2c(C#N)c(N)nc(SCc3coc(-c4ccc(Cl)cc4)n3)c2C#N)cc1)OC(=O)[C@H](C)NC(=O)[C@@H](N)CCCN	860
C[C@H](N)C(=O)N[C@H](C(=O)OC[C@H](COc1ccc(-c2c(C#N)c(N)nc(SCc3coc(-c4ccc(Cl)cc4)n3)c2C#N)cc1)OC(=O)[C@@H](NC(=O)[C@H](C)N)[C@@H](C)O)[C@@H](C)O [Example 38, (trifluoroacetic acid) salt]	750
C[C@@H](O)[C@H](NC(=O)CN)C(=O)OC[C@H](COc1ccc(-c2c(C#N)c(N)nc(SCc3coc(-c4ccc(Cl)cc4)n3)c2C#N)cc1)OC(=O)[C@@H](NC(=O)CN)[C@@H](C)O [Example 36, (trifluoroacetic acid) salt]	700
C[C@H](NC(=O)[C@@H](N)CCCCN)C(=O)OC[C@H](COc1ccc(-c2c(C#N)c(N)nc(SCc3coc(-c4ccc(Cl)cc4)n3)c2C#N)cc1)OC(=O)[C@H](C)NC(=O)[C@@H](N)CCCCN	610
